system: 817829-284-R-J1-PDC complex spheroids, viability; test: Anticancer human tumor 817829-284-R-J1-PDC patient-derived colon adenocarcinoma cell line growth inhibition [CLK]; conditions: second compound 0.316 µM; first compound 3.16 µM; active means viability on the fitted dose curve at most 10% of control; inactive means the rest;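 further: spheroids exposed to the agents for seven days before readout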
Possible outcomes: 1.0 for active, 0.0 for inactive

- C=C(F)C(=O)N1CCN(c2nc(OCC3CCCN3C)nc3c2CCN(c2cccc4cccc(Cl)c24)C3)CC1CC#N (stereo unspecified) + CNC(=O)c1ccc(Nc2nc(OC3CCCC3)c3c(-c4ccc5nc(C)oc5c4)c[nH]c3n2)c(OC)c1: 0.0
- CC(CO)NC(=O)c1cc(-c2ccc(Cl)cc2)nn(-c2cnn(C)c2)c1=O (stereo unspecified) + CN1CCN(c2cc(C(=O)Nc3cc4cc(-c5cnn(C)c5)ccc4cn3)ccn2)CC1: 1.0
- COC1C=CCC(C)C(C)S(=O)(=O)NC(=O)c2ccc3c(c2)N(CC2CCC21)CC1(CCCc2cc(Cl)ccc21)CO3 (stereo unspecified) + CNC(=O)c1ccc(Nc2nc(OC3CCCC3)c3c(-c4ccc5nc(C)oc5c4)c[nH]c3n2)c(OC)c1: 1.0
- C#Cc1c(F)ccc2cc(O)cc(-c3ncc4c(N5CC6CCC(C5)N6)nc(OCC56CCCN5CC(F)C6)nc4c3F)c12 (stereo unspecified) + CNC(=O)c1ccc(Nc2nc(OC3CCCC3)c3c(-c4ccc5nc(C)oc5c4)c[nH]c3n2)c(OC)c1: 0.0
- C=C(F)C(=O)N1CCN(c2nc(OCC3CCCN3C)nc3c2CCN(c2cccc4cccc(Cl)c24)C3)CC1CC#N (stereo unspecified) + CN1CCN(c2cc(C(=O)Nc3cc4cc(-c5cnn(C)c5)ccc4cn3)ccn2)CC1: 1.0
- O=C(c1cc(Cc2n[nH]c(=O)c3ccccc23)ccc1F)N1CCN(C(=O)C2CC2)CC1 + CNC(=O)c1ccc(Nc2nc(OC3CCCC3)c3c(-c4ccc5nc(C)oc5c4)c[nH]c3n2)c(OC)c1: 0.0
- C=CC(=O)N1CCN(c2nc(=O)n(-c3c(C)ccnc3C(C)C)c3nc(-c4c(O)cccc4F)c(F)cc23)C(C)C1 (stereo unspecified) + CN1CCN(c2cc(C(=O)Nc3cc4cc(-c5cnn(C)c5)ccc4cn3)ccn2)CC1: 1.0
- CC1COCCN1c1cc(C2(S(C)(=N)=O)CC2)nc(-c2ccnc3[nH]ccc23)n1 (stereo unspecified) + CN1CCN(c2cc(C(=O)Nc3cc4cc(-c5cnn(C)c5)ccc4cn3)ccn2)CC1: 1.0
- Nc1ccn(C2OC(CO)C(O)C2(F)F)c(=O)n1 (stereo unspecified) + CNC(=O)c1ccc(Nc2nc(OC3CCCC3)c3c(-c4ccc5nc(C)oc5c4)c[nH]c3n2)c(OC)c1: 1.0
- CCCS(=O)(=O)Nc1ccc(F)c(C(=O)c2c[nH]c3ncc(-c4ccc(Cl)cc4)cc23)c1F + CN1CCN(c2cc(C(=O)Nc3cc4cc(-c5cnn(C)c5)ccc4cn3)ccn2)CC1: 1.0
- O=c1[nH]cc(F)c(=O)[nH]1 + CNC(=O)c1ccc(Nc2nc(OC3CCCC3)c3c(-c4ccc5nc(C)oc5c4)c[nH]c3n2)c(OC)c1: 0.0
